- study.target: MBP-KIX-apoferritin construct 3 (24-mer double-shell complex) (not stated | mouse)
- assay.method.text: fluorescence polarisation
pIC50: −log10 of the molar value. Square brackets hold non-standard residues; d marks the D form. pS = N[C@@H](COP(=O)(O)O)C(=O)O

binder	pIC50
Ac-LSRRP[pS]YRKILNDLSSDAP-NH2 [peptide 7]	3.51
Ac-LKRRP[pS]YRKILNDLSSDAP-NH2 [peptide 7′]	3.77
